List of TGI values.
Tested on: OVCAR-3 ovarian
Method Summary: NCI tumour cell line growth inhibition, 48 h

Here is how some compounds turned out for TGI.
CC(=O)Oc1cc(C)ccc1[C@]1(C)CC[C@H](C)/C1=C\Br; 7.16 µM
COC(=O)CCC/C=C\C[C@H]1C=CC(=O)/C1=C/C[C@@H](O)CCc1cccc(C(F)(F)F)c1; 4.08 µM
Cc1ccc2c(c1)OC1Nc3ccccc3C1=C2O (configuration not stated); 21.1 µM
O=C(N=Nc1ccccc1Br)NNc1ccccc1Br; > 100 µM

stdin: Reported TGI, compound CC1(C)C2CC(c3ccncc3)ON2C(C)(C)N1O (configuration not stated) : ____
stdout: > 100 µM

stdin: Now the compound `O=C(Nc1cccc(-c2cn3ccccc3n2)c1)c1ccncc1`
stdout: > 100 µM

stdin: Now the compound `COc1ccc(-c2c(C3=NCCN3)nnn2-c2ccccc2)cc1`
stdout: > 100 µM

stdin: Now the compound CCCCCCCCCCCCCCCCNc1nc(=O)n(C2CC(O)C(CO)O2)cc1F (configuration not stated)
stdout: 39.3 µM

stdin: Now the compound CCN(CC)CCC1CC/C(=C\c2ccc(OC)cc2)C1=O (configuration not stated)
stdout: > 100 µM

stdin: Now the compound `CCOC(=O)C(C)(C)Oc1ccc2c(=O)cc(-c3ccc(Cl)cc3)oc2c1`
stdout: > 100 µM

###

Test system: SR leukemia
Method Summary: NCI tumour cell line growth inhibition, 48 h
Value Type: TGI

Here is how some compounds turned out for TGI.
COc1cc([C@H](C)c2ccc3ccccc3c2)cc(OC)c1OC; > 100 µM
CN(C)CCNc1nc2ccccc2c2c1c1c(n2Cc2ccccc2)-c2ccccc2C1=O; 20.9 µM
Nc1nc(-c2cccc([N+](=O)[O-])c2)c(Br)c(=O)[nH]1; > 100 µM
C[CH2][Sn]1([CH2]C)[O]C(=O)[O][Sn]([CH2]C)([CH2]C)[O]1; > 100 µM
O=c1[nH]nc(Cc2ccc(Cl)cc2)n1O; > 100 µM

stdin: Reported TGI, compound `COc1cc(OC)c(/C=C/c2ccc3ccccc3[n+]2C)c(OC)c1` : ____
stdout: 2.68 µM

stdin: Now the compound `O=C(O)c1ccc(Nc2nc3cc(C(F)(F)F)ccc3nc2C(=O)O)cc1`
stdout: > 100 µM

stdin: Now the compound `COc1cc2ccnc3c2c(c1O)N(C)C=C3`
stdout: > 100 µM

stdin: Now the compound `O=[As](O)(O)c1cc(N=Nc2ccc(-c3ccc(N=Nc4cc([As](=O)(O)O)c(O)cc4O)cc3)cc2)c(O)cc1O`
stdout: > 100 µM

stdin: Now the compound CCCCCCC/C=C/[C@H]1O[C@]23C(=O)C[C@@]4(C[C@@H](OC5OC(CO)C(O)C(O)C5O)C[C@@H]4[C@H]2C=C1C)OC3=O (stereo not given in full)
stdout: 13.6 µM

###

Test system: IGROV1 ovarian
Method Summary: NCI tumour cell line growth inhibition, 48 h
Value Type: TGI

Here is how some compounds turned out for TGI.
COC(OC)C(O)C1OC=CC1n1cnc2c(N)ncnc21 (centres undefined); > 100 µM
CCCCCCCCCCCCCCCCCCOCC(O)COP(=O)(O)OCC1OC(n2cc(F)c(=O)[nH]c2=O)CC1O (centres undefined); 26.8 µM
CN1CCN(CCSC2Cc3cc(Cl)ccc3Sc3ccccc32)CC1 (centres undefined); 25.6 µM
CC(C)n1c(=O)n(-c2ccccc2)n(C(C)(C)C)c1=O; > 100 µM
O=c1oc2ccccc2c(O)c1/C=N\c1nc(-c2ccccc2)cs1; 27.8 µM
COc1cc(-c2nc3ccc(C)cc3[nH]2)ccc1OCC(=O)N=Nc1c(O)[nH]c2ccccc12; 3.48 µM
COC(=O)c1cncc2c1CC1C3(C(=O)OC)C=NC(C4C(CO)=CCC43)C21C (centres undefined); > 100 µM
CC(C)(C)OC(=O)N1C(OP(=O)(Oc2ccccc2)Oc2ccccc2)=COc2cccnc21; > 100 µM
CCCCCCC/C=C/[C@H]1O[C@]23C(=O)C[C@@]4(C[C@@H](OC5OC(CO)C(O)C(O)C5O)C[C@@H]4[C@H]2C=C1C)OC3=O (some centres undefined); 26.7 µM
Cc1nc(N)sc1C(=O)/C=C/c1ccc(/C=C/C(=O)c2sc(NC(=O)CCCCCCCCC(=O)Nc3nc(C)c(C(=O)/C=C/c4ccc(/C=C/C(=O)c5sc(N)nc5C)cc4)s3)nc2C)cc1; > 100 µM

stdin: Item: `CN(C)c1ccc(/C=C2\Oc3cc(O)ccc3C2=O)cc1` Test system: IGROV1 ovarian Read-out: TGI Value: ?
stdout: > 100 µM

stdin: Now the compound CCCC(=O)c1c(NOC2OC(COC(C)=O)C(OC(C)=O)C(OC(C)=O)C2OC(C)=O)nc(OC)n(C)c1=O (centres undefined)
stdout: > 100 µM

stdin: Now the compound `N#CC(C#N)=C(N)/C(C#N)=C\c1ccnc2ccccc12`
stdout: 49.5 µM

stdin: Now the compound `NC(N)=N/N=C/c1nc2sccn2c1[N+](=O)[O-]`
stdout: > 100 µM

stdin: Now the compound COP1(=O)CC2C(Cl)(Cl)C2(C)C1 (centres undefined)
stdout: > 100 µM

stdin: Now the compound COC1/C=C/C(C)C(C(C)C(OC)C(C)CCC(=O)C(C)C(CCC(=O)O)OC)OC(=O)/C=C/C=C(\C)CC(OC)CC2=CC(=O)O[C@@H](C(C)C(OC)CC(OC)/C=C/C(C)C(OC)C1)[C@H]2O (some centres undefined)
stdout: 0.948 µM

stdin: Now the compound OC1OC(c2ccco2)C(F)(F)C(F)(F)C1(F)F (centres undefined)
stdout: > 100 µM

stdin: Now the compound `COc1ccc2c(c1)sc1nc(-c3ccccc3)c(-c3ccsc3)n12`
stdout: > 100 µM

stdin: Now the compound CN1C2CC(=O)CC1[C@@H]1OC(c3ccccc3)O[C@H]21 (some centres undefined)
stdout: > 100 µM
